The reported measurements were obtained from PubChem BioAssay (Tox21).

- PROTOCOL: Caspase-3/7 induction in CHO-K1 cells by small molecules, qHTS cell viability counter screen (AID 1346979); also: nearly all actives have a fitted effect of over 35% in size
- COND: CellTiter-Fluor fluorescence, 17 h; series mostly up to 92.4 µM
Inconclusive results are not listed. Active and inactive are the calls of the source. Calls follow the shape of the dose curve; as a rule, active = well fitted cell-killing curve with a large enough effect in the repeat runs; inconclusive = weak or mixed curves, or effect the other way; inactive = no such curve, though single readings can be large or run the other way.
Classes used: active, inactive

MOLECULE | ASSIGNED_LABEL
CCCCC(CC)COC(=O)CC(C(=O)OCC(CC)CCCC)S(=O)(=O)O (stereo not drawn) | active
O=Cc1ccc(Cl)cc1 | inactive
COc1cc(C(=S)N2CCOCC2)ccc1O | inactive
O=C(O)CCc1ccccc1 | inactive
CCN1CCCC1CNC(=O)c1cc(S(=O)(=O)CC)c(N)cc1OC (stereo not drawn) | inactive
C1COC(NC(C2CC2)C2CC2)=N1 | inactive
CC(=O)CC(C)=O | inactive
CCc1cc(C(C)(C)C)c(O)c(C(C)(C)C)c1 | inactive
CC(=O)OCC1=C(C(=O)O)N2C(=O)[C@@H](NC(=O)Cc3cccs3)[C@H]2SC1 | inactive
CCCC(=O)c1ccccc1 | inactive
CC(C(O)c1ccc(O)cc1)N1CCC(Cc2ccccc2)CC1 (stereo not drawn) | inactive
O=C(O)c1cc(Cl)cc(Cl)c1 | inactive
c1cc(C(c2ccc(OCC3CO3)cc2)C(c2ccc(OCC3CO3)cc2)c2ccc(OCC3CO3)cc2)ccc1OCC1CO1 (stereo not drawn) | inactive

----------
- PROTOCOL: qHTS assay to identify small molecule antagonists of the TGF-beta/Smad signaling pathway - cell viability counter screen (AID 1346824); also: nearly all actives have a fitted effect of over 50% in size
- COND: SBE-bla HEK293T viability, CellTiter-Glo luminescence; series mostly up to 76.8 µM
Results filed as inconclusive are left out. Active and inactive are the calls of the source. Calls come from the whole dose curve; as a rule, active = well fitted cell-killing curve with a large enough effect in the repeat runs; inconclusive = weak or mixed curves; inactive = flat fitted curve, though single readings scatter.
METRIC_NAME: viability change, negative = cytotoxic

CHEM_SMILES | REPORTED_VALUE
CN1C(=O)c2ccc([N+](=O)[O-])cc2C1=O | inactive
Nc1ccc(O)cc1 | inactive
Cc1cccc2n[nH]nc12 | inactive
Nc1nc2ccccc2[nH]1 | inactive
O | inactive
Nc1nc(=S)c2[nH]cnc2[nH]1 | inactive
Nc1cc(S(=O)(=O)O)cc2cc(S(=O)(=O)O)cc(O)c12 | inactive
CC(C)CCOC(=O)c1ccc(N(C)C)cc1 | inactive

----------
- PROTOCOL: qHTS assay for small molecule disruptors of the mitochondrial membrane potential (AID 720635)
- COND: HepG2 mitochondrial membrane potential, Mito-MPS dye ratio; series mostly up to 83.2 µM
- Text: U.S. Tox21 Program National Center for Advancing Translational Sciences [NCATS] NIH Chemical Genomics Center [NCGC] U.S. Environmental Protection Agency [EPA] National Institutes of Environmental Health Sciences [NIEHS] National Toxicology Program [NTP] U.S. Food and Drug Administration [FDA] […] The dye accumulates in the mitochondria of healthy cells as aggregates, with red fluorescence. […]
Inconclusive results are not listed. Activity calls are given as the source filed them. Calls follow the shape of the dose curve; as a rule, active = well fitted inhibition curve with a large enough effect in the signal ratio in the repeat runs; inconclusive = weak or mixed curves, or effect the other way; inactive = flat fitted curve, though single readings scatter; the % refers to the signal ratio.
Classes used: active, inactive

MOLECULE | ASSIGNED_LABEL
CC(N)=O | inactive
COC(=O)[C@H]1[C@H]2C[C@@H]3c4[nH]c5cc(OC)ccc5c4CCN3C[C@H]2C[C@@H](OC(=O)c2cc(OC)c(OC)c(OC)c2)[C@@H]1OC | active
c1cc(C(c2ccc(OCC3CO3)cc2)C(c2ccc(OCC3CO3)cc2)c2ccc(OCC3CO3)cc2)ccc1OCC1CO1 (configuration not stated) | inactive
CCOC(=O)C(C)C(C)=O (configuration not stated) | inactive
CCC(C)(Oc1ccc(C2(c3ccc(OC(C)(CC)C(=O)O)cc3)CCCCC2)cc1)C(=O)O (configuration not stated) | inactive
CCOc1ccccc1C(N)=O | inactive
CCC(CO)(CO)COCC(CC)(CO)CO | inactive
c1cnc2cc3c(cc2n1)C1CNCC3C1 | inactive
NNCCc1ccccc1 | inactive
CCCCC(CC)COC(=O)CC(C(=O)OCC(CC)CCCC)S(=O)(=O)O (configuration not stated) | active
N[C@@H]1CONC1=O | inactive
O=c1n(CC2CO2)c(=O)n(CC2CO2)c(=O)n1CC1CO1 (configuration not stated) | inactive
